Cited source for all entries: patent US9566312B2

# experimentalTarget: cyclophilin A (CypA) (Homo sapiens (Human), UniProt P62937)
# Sequence (P62937 whole entry): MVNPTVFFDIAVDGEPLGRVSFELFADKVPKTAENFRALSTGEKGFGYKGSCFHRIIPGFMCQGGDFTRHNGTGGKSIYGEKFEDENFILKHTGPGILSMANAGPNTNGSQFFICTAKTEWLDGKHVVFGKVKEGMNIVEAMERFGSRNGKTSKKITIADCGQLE
# methodDescription: Inhibitor binding to cyclophilin proteins by SPR, CypA;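 note: Single-cycle kinetics on a Biacore T200, compound injected at several concentrations for 1 min each at 50 µL/min, then 10 min dissociation, in HEPES pH 7.4 buffer with 3% DMSO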
# Parameters: unit not given here
# testConditions: 1:1 binding model
Starred links: 1 amine or outer side, 2 acyl side, 3 side chain; linkers in the order of their positions; H or OH if unused. Non-standard residues stand in square brackets, D forms with d. Residues, ends and D or L forms follow the SMILES beside them. X7 = C[C@H](COCCN1CCS(=O)(=O)CC1)[C@@H](C(=O)[*:2])N(C)[*:1]; MeBmt = C/C=C/C[C@@H](C)[C@@H](O)[C@H](NC)C(=O)O; NMeL = CN[C@@H](CC(C)C)C(=O)O; NMeV = CN[C@H](C(=O)O)C(C)C; dNMeA = CN[C@H](C)C(=O)O; Abu = CC[C@H](N)C(=O)O
measuredProperty: CypA Kd
Just the number, please, no unit after it.

[in] Quote CypA Kd with test system cyclophilin A (CypA) (Homo sapiens (Human), UniProt P62937) for C/C=C/C[C@@H](C)[C@@H](O)[C@H]1C(=O)N[C@@H](CC)C(=O)N(C)[C@H](C)C(=O)N(C)[C@@H]([C@H](C)COCCN2CCS(=O)(=O)CC2)C(=O)N[C@@H](C(C)C)C(=O)N(C)[C@@H](CC(C)C)C(=O)N[C@@H](C)C(=O)N[C@H](C)C(=O)N(C)[C@@H](CC(C)C)C(=O)N(C)[C@@H](CC(C)C)C(=O)N(C)[C@@H](C(C)C)C(=O)N1C [Compound 2.8.2] (cyclo(A[dA][NMeL][NMeL][NMeV][MeBmt][Abu][dNMeA][X7]V[NMeL]))
[out] 1.6
